# Test system: Jurkat cells
# PROCEDURE TEXT: Tacrolimus dose response of FKBP13-AcGFP-mCherry constructs stably transduced into Jurkat cells, GFP MFI by flow cytometry
# Assay type: cell-based
# REPORTED CONDITIONS: tacrolimus dose response, Jurkat cells stably transduced (FIG. 10); Table 5
I'd be grateful if you could share measured Fold Change for these entries.
// keep it numeric: no unit symbol after the value

Query (molecule): FKBP-068: FKBP13 DRD Q72R, Q84E, A117H, M54S; SEQ ID NO: 24 (protein, Description of sequence: FKBP13-AcGFP-mCherry Fusion; Construct Name: FKBP-068; FKBP13 DRD in Construct : FKBP13 (mutated to match FKBP12 active site - Q72R Q84E A117H) (DRD - M54S)) HCPIKSRKGDVLHSHYTGKLEDGTEFDSSLPRNQPFVFSLGTGEVIKGWDQGLLGMCEGEKRKLVIPSELGYGERGHPPKIPGGATLVFEVELLKIER ; field requested: Fold Change
43.62

What Fold Change value was documented for this molecule, FKBP-091: FKBP13 DRD Q72R, Q84E, A117W, M54A; SEQ ID NO: 41 (protein, Description of sequence: FKBP13-AcGFP-mCherry Fusion; Construct Name: FKBP-091; FKBP13 DRD in Construct : FKBP13 (mutated to match FKBP12 active site Q72R Q84E A117W) (DRD - M54A)) HCPIKSRKGDVLHAHYTGKLEDGTEFDSSLPRNQPFVFSLGTGEVIKGWDQGLLGMCEGEKRKLVIPSELGYGERGWPPKIPGGATLVFEVELLKIER ?
12.36

Any idea what its Fold Change is? The molecule is FKBP-094: FKBP13 DRD Q72R, Q84E, A117H, P107S; SEQ ID NO: 44 (protein, Description of sequence: FKBP13-AcGFP-mCherry Fusion; Construct Name: FKBP-094; FKBP13 DRD in Construct : FKBP13 (mutated to match FKBP12 active site Q72R Q84E A117H) (DRD - P107S)) HCPIKSRKGDVLHMHYTGKLEDGTEFDSSLPRNQPFVFSLGTGEVIKGWDQGLLGMCEGEKRKLVISSELGYGERGHPPKIPGGATLVFEVELLKIER
13.5
